Where do these numbers come from? They come from the supplement of paper PMC11451515.

Reported cell viability by item:
Test system: P12-Ichikawa
Assay: cell viability relative to DMSO control; higher = less cytotoxic
Conditions: RPMI 5 mM glucose + 10% dialyzed FBS; 48 h; 15.4 µM
Number in %, nothing else.

A selection of reference data follows.
compound: CCOC(=O)N1c2ccc(C(F)(F)F)cc2[C@@H](N(Cc2cc(C(F)(F)F)cc(C(F)(F)F)c2)C(=O)OC)C[C@H]1CC
target.desc: P12-Ichikawa
cell viability, %: 112

compound: CCN1\C=C(\C(O)=O)C(=O)C2=C1N=C(N3CCNCC3)C(=C2)F
target.desc: P12-Ichikawa
cell viability, %: 83.4

compound: O=C(O)CCCCC(CCSCc1ccccc1)SCc1ccccc1 (stereo unspecified)
target.desc: P12-Ichikawa
cell viability, %: 101

compound: COc1cc([C@@H](CC(=O)O)c2ccc(C)c(CN3C[C@@H](C)Oc4ccccc4[S+]3(=O)[O-])c2)cc2nnn(C)c12
target.desc: P12-Ichikawa
cell viability, %: 94.7

compound: Cc1ccccc1C(OCCN(C)C)c1ccccc1 (stereo unspecified)
target.desc: P12-Ichikawa
cell viability, %: 128

Field request: cell viability | item: CCC(C)N1\N=C/N(C1=O)C2=CC=C(C=C2)N3CCN(CC3)C4=CC=C(OC[C@H]5CO[C@@](C[N]6C=NC=N6)(O5)C7=CC=C(Cl)C=C7Cl)C=C4 (stereo partly specified)
98.5

Field request: cell viability | item: `ClC1=CC=C2N/C3=N/C(=O)CN3CC2=C1Cl`
105

Field request: cell viability | item: `CN(C)c1ccc2nc3ccc(N(C)C)cc3[s+]c2c1`
12.8

Field request: cell viability | item: `CC[C@]12CC[C@H]3[C@@H](CCC/4=C/C(=O)CC[C@H]34)[C@@H]1CC[C@@]2(O)C#C`
73

Field request: cell viability | item: `CCc1cc(C(N)=S)ccn1`
95.9

Field request: cell viability | item: O=C(CS(=O)Cc1ccco1)NC/C=C\COc1cc(CN2CCCCC2)ccn1 (stereo unspecified)
105

Field request: cell viability | item: `C[C@@H]1CN(Cc2ccc(F)cc2)[C@@H](C)CN1C(=O)c1cc2c(C(=O)C(=O)N(C)C)cn(C)c2cc1Cl`
118

Field request: cell viability | item: `OC1=CC2=C(C=C1)C(=O)\C(=C(O2)\C3=CC(=C(O)C=C3)O)O`
79.7

Field request: cell viability | item: `CCC[S+](=O)([O-])Nc1ccc(F)c(C(=O)c2c[nH]c3ncc(Cl)cc23)c1F`
72.3

Field request: cell viability | item: `CC(C)N(C[C@H]1O[C@@H](n2cnc3c(N)ncnc32)[C@H](O)[C@@H]1O)[C@H]1C[C@@H](CCc2nc3cc(C(C)(C)C)ccc3[nH]2)C1`
31

Field request: cell viability | item: CC(NC(C)(C)C)C(=O)c1cccc(Cl)c1 (stereo unspecified)
118
